experiment: folding enthalpy; higher = less favourable; fluorescence melt of hairpins on a sequencing array, two-state fit; conditions: sodium 0.088 M
Label class 1 when folding enthalpy is at or above -20 kcal/mol; anything below gets class 0.

A selection of reference data follows.
GAGGGGCGAAAGCCTCTC (((.(((....))).))); class 0
GATCTACAATTAGATC ((((((....)))))); class 0
GCATAGCGAAAGCGGTGC (((..((....))..))); class 0
GAAAGCCGAAAGGCGTTC (((.(((....))).))); class 1
GGATCCGAAAGGACGTCC ((((((....)))..))); class 1

Q: // inclusive: folding enthalpy at least -20 kcal/mol? input: GCCGCGCGAAAGCTCCGC ((.(.((....)).).))
Ans: class 1

Q: // inclusive: folding enthalpy at least -20 kcal/mol? input: GGCTTCCGAAAGGATGCC (((.(((....))).)))
Ans: class 0

Q: // inclusive: folding enthalpy at least -20 kcal/mol? input: GATCGCCTAGCGATC ((((((...))))))
Ans: class 0

Q: // inclusive: folding enthalpy at least -20 kcal/mol? input: GATCCAAACCTGGATC ((((((....))))))
Ans: class 0

----------
assay: melting temperature; fluorescence melt of hairpins on a sequencing array, two-state fit, raised by 9.35 °C to match UV melts; details: sodium 0.088 M
Each entry falls into one class according to its Tm; the ranges are bin A (below 40 °C), bin B (40 °C to below 60 °C), bin C (60 °C or more)

A selection of reference data follows.
GTGAGCGGAAACGCCCAC (((.(((....))).))); bin B
GCTGCGCGAAAGCACCGC ((.(.((....)).).)); bin B

Next item in the queue.
Q: Please indicate the class for GTGCATGGAAACATGCAC (((((((....))))))) based on its Tm.
Ans: bin C

----------
assay: melting temperature; fluorescence melt of hairpins on a sequencing array, two-state fit, raised by 9.35 °C to match UV melts; settings: sodium 0.088 M
test_readout: Tm (°C)
Give a bare numeral; the unit °C is implied.

Some sequences with recorded Tm:
GTATCGGGAAACTGGTAC (((.(.(....).).))); 32.3
GGGCGCGAAAGCGTACCC ((((((....)))..))); 56.3
CGGATGAAAATCCG (((((....))))); 56

Q: Entry GCCTCGCGAAAGCGAAGC ((.((((....)))).)) : reported Tm = ?
Ans: 56.5

Q: Entry GATCCCCCAAGGGATC ((((((....)))))) : reported Tm = ?
Ans: 61.2

----------
test: melting temperature; fluorescence melt of hairpins on a sequencing array, two-state fit, raised by 9.35 °C to match UV melts; settings: sodium 0.088 M
The following sequences are shown together with reported Tm values.
Give a bare numeral; the unit °C is implied.

Some sequences with recorded Tm:
GATTGGCGAAAGCCATC (((.(((....)))))); 41.3
GCGTTCCACGC ((((...)))); 59.7
GAGCGCGGAAACGCGTTC ((.((((....)))).)); 57.4
GTACACGAAAGTGTGTAC ((((((....)))..))); 46
GGTTAGGGAAACCTAATC (.(((((....))))).); 37.9

Q: Entry GTCCGAGGAAACTCAGAC (((.(((....))).))) : reported Tm = ?
Ans: 35.9

Q: Entry GATCCCCCTGGGGATC ((((((....)))))) : reported Tm = ?
Ans: 67.5

Q: Entry GCTGCCGAAAGGCAAAGC ((((((....)))..))) : reported Tm = ?
Ans: 57.1

Q: Entry GAGACTGGAAACAGTTTC ((.((((....)))).)) : reported Tm = ?
Ans: 38.8

Q: Entry GATCATTCTTATGATC ((((((....)))))) : reported Tm = ?
Ans: 48.6

Q: Entry GATCACGAAAGTGGAATC ((((((....)))..))) : reported Tm = ?
Ans: 32.1

Q: Entry GGATAGTCGAAAGACTCC (((..(((....)))))) : reported Tm = ?
Ans: 33.1

Q: Entry GTCTCCGAAAGGATAGAC ((((((....)))..))) : reported Tm = ?
Ans: 41

Q: Entry GTAAACGAAAGTTGTAC ((((((....))).))) : reported Tm = ?
Ans: 31.2
